FYI, the data here is from paper PMC4974639.

biological target: rA3G-CD1 (loop-8 mutant) (Macaca mulatta (rhesus macaque), UniProt M1GSK9 1-138+=AEAG+147-196, internal_change); assay: ITC; n=1.47; ITC: 100 mM NaCl, 50 mM HEPES pH 7.5, 25 C; EMSA: 60 mM HEPES pH 7.5, 100 mM NaCl, on ice 10 min, native PAGE; settings: protein: recombinant; tags: GST tag removed with PreScission (pGEX-6P-1); chain copies: 2
Sequence (M1GSK9 entry or part of it | mutant): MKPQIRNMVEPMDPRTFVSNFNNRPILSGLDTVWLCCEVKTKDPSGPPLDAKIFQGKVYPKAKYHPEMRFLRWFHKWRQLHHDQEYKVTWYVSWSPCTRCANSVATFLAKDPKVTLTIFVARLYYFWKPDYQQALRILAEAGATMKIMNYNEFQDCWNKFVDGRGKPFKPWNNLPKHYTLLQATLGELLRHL
measure name: pKd
Just so you know, pKd here is -log10 of the concentration in molar units; reply with that number alone.

# binder TTTTTTTTTT (ssDNA) [10 nt poly-dT ssDNA] ; its pKd = 5.80
